For each of the compounds below, state its GI50.
# Test system: UACC-257
# Measurement Notes: NCI tumour cell line growth inhibition, 48 h
The source made the active and inactive calls. Cut-off read from the data, not from the text of the source: active = GI50 up to about 1.1 µM and inactive = higher.

Worked examples, 4 compounds total:
Request: Need GI50 of "C(CCCCc1nnc(N2CCOCC2)o1)CCCc1nnc(N2CCOCC2)o1" , thanks.
Result: > 100 µM (inactive)

Request: Could you do the same for CCC/C=C/C=C/C(=O)OC1C(C)C2(O)C3C=C(C)C(=O)C3CC(COC(C)=O)=CC2C2C(C)(C)C12OC(=O)C(C)C (stereo unspecified) , please?
Result: 16.7 µM (inactive)

Request: Could you do the same for CC(C)(C)OC(=O)NC(Cc1ccc(OCc2ccccc2)cn1)C(N)=O (stereo unspecified) , please?
Result: 75.2 µM (inactive)

Request: Could you do the same for "Cc1nnc(N)nc1/C=C\c1ccc(N(C)C)cc1" , please?
Result: 22.5 µM (inactive)

Dear reader, for each entry below, please note its GI50.
1. c1ccc2c(c1)oc1ccc3nsnc3c12
2. Nc1c(C(=O)N/N=C/c2ccc(Cl)cc2)sc(=S)n1-c1ccccc1

Result:
["> 100 µM (inactive)", "> 100 µM (inactive)"]

---

# System: NCI-H226
# Measurement Notes: NCI tumour cell line growth inhibition, 48 h
Active and inactive are the calls of the source. Cut-off read from the data, not from the text of the source: active = GI50 up to about 1.1 µM and inactive = higher.
For each of the compounds below, state its GI50.

Worked examples, 3 compounds total:
Request: Need GI50 of Nc1cn(C2OC(CC(c3ccccc3)(c3ccccc3)c3ccccc3)C(O)C2O)c(=O)[nH]c1=O (centres undefined) , thanks.
Result: 73.8 µM (inactive)

Request: Could you do the same for O=S(=O)(CCC[C@H]1[C@@H](CCOCc2ccccc2)C2CCCN1O2)c1ccccc1 (some centres undefined) , please?
Result: > 100 µM (inactive)

Request: Could you do the same for "CCOC(=O)/C=C1\Nc2ccccc2-n2nnnc21" , please?
Result: > 100 µM (inactive)

// next entry
Request: Need GI50 of COc1ccc(C(C)NNC(=O)c2cc[n+]([BH2-]C#N)cc2)cc1F (centres undefined) , thanks.
Result: > 100 µM (inactive)

---

For each of the molecules below, state its GI50.
# Test system: MOLT-4
# Measurement Notes: NCI tumour cell line growth inhibition, 48 h
Calls of active or inactive are those of the source. No stated cut-off is given here; in the data, active = GI50 up to about 1.1 µM and inactive = higher.

Worked examples, 5 molecules total:
Request: Need GI50 of "CCCCCCCCCc1c(Cl)nc(Cl)nc1Cl" , thanks.
Result: 1.96 µM (inactive)

Request: Could you do the same for CC(=O)C1=C(O)C(N)C2Cc3c(c(O)c4c(O)c(C)ccc4c3C)C(=O)C2(O)C1=O (stereo unspecified) , please?
Result: 1.71 µM (inactive)

Request: Could you do the same for C1=C(c2ccccc2)C(OC2Oc3ccccc3C=C2c2ccccc2)Oc2ccccc21 (stereo unspecified) , please?
Result: > 100 µM (inactive)

Request: Could you do the same for c1ccc(C2CC(c3ccc4ccccc4c3)=Nc3ccccc3S2)cc1 (stereo unspecified) , please?
Result: 30.4 µM (inactive)

Request: Could you do the same for "COc1ccc(CCNC2=CC(=O)c3ncccc3C2=O)cc1OC" , please?
Result: 5.05 µM (inactive)

Dear reader, for each entry below, please note its GI50.
1. CN1CCN(c2cc3nsnc3c3nsnc23)CC1
2. CC/C(N)=N\NC(=O)OC(C)(C)C
3. O=c1[nH]c2cc(C(F)(F)F)ccc2nc1Cc1ccccc1
4. O=C(Nc1nc2ncn(CC(COc3ccccc3)OC(=O)c3ccccc3)c2c(=O)[nH]1)c1ccccc1 (stereo unspecified)
5. N#CC(c1ccccc1)N(CCc1ccccc1)C(=O)c1ccccc1 (stereo unspecified)
6. C[C@@H](Oc1ccc(Oc2cnc3ccc(Cl)cc3n2)cc1)C(=O)O [R(+)XK469]
7. COc1cc(OC)c2ssc3c(OC)cc(OC)c4ssc1c2-c43

Result:
1: > 10 µM (inactive); 2: > 100 µM (inactive); 3: > 100 µM (inactive); 4: > 100 µM (inactive); 5: > 100 µM (inactive); 6: > 100 µM (inactive); 7: > 100 µM (inactive)

---

# System: BT-549
# Measurement Notes: NCI tumour cell line growth inhibition, 48 h
Calls of active or inactive are those of the source. No stated cut-off is given here; in the data, active = GI50 up to about 1.1 µM and inactive = higher.
Endpoint Name: GI50

Request: Param readout = GI50; param system = BT-549; param query = "CCOC(=O)Cn1c(C(F)(F)F)nc2nc(Cl)c(Cl)nc21" ; response: value
Result: 54.8 µM (inactive)

Dear reader, for each entry below, please note its GI50.
1. CCCCCCCCCCCCn1c(=O)cc(NCCCC)c2cc3c(NCCCC)cc(=O)n(CCCCCCCCCCCC)c3nc21
2. C=C(C)[C@@H]1CC[C@]2(C(=O)O)CC[C@]3(C)[C@H](CC[C@@H]4[C@@]5(C)CC(=O)C(C)(C)[C@@H]5CC[C@]43C)[C@@H]12
3. CCCC(=O)NC(Nc1ccc(S(=O)(=O)Nc2ccc(OC)nn2)cc1)(C(F)(F)F)C(F)(F)F

Result:
> 100 µM (inactive)
10.3 µM (inactive)
> 100 µM (inactive)

Request: Param readout = GI50; param system = BT-549; param query = "CCOC(=O)/C(=C\c1ccccc1)C(=O)CCN1CCOCC1" ; response: value
Result: 16.7 µM (inactive)

---

# Test system: 786-0
# Measurement Notes: NCI tumour cell line growth inhibition, 48 h
Calls of active or inactive are those of the source. Cut-off read from the data, not from the text of the source: active = GI50 up to about 1.1 µM and inactive = higher. Where a SMILES comes first, the peptide text is derived from it. The star is where a group is joined. Boc = CC(C)(C)OC(=O)*
// classify into YES for active, NO for inactive

Check out these entries, answers already filled in.
Request: Can you look up the reported call for "FC(F)(F)c1ccccc1N1CCN(c2nc(-c3cccs3)nc3ccc(Br)cc23)CC1" for me?
Result: NO

Request: Could you do the same for CC1C2(C)OCC(C#N)(C(=N)O2)C1(C#N)C#N (configuration not stated) , please?
Result: NO

Request: Could you do the same for COc1cc(C2c3cc4c(cc3OC(NNc3ccccc3)C2C)OCO4)cc(OC)c1OC (configuration not stated) , please?
Result: YES

Request: Could you do the same for "Nc1c(Cl)ncnc1NCCCNc1ncnc(Cl)c1N" , please?
Result: NO

Request: Could you do the same for "COc1cc(C(=O)C/C(CCC(=O)Nc2ccccc2[N+](=O)[O-])=N\NC(=O)CC#N)ccc1O" , please?
Result: NO

Request: Could you do the same for "O=S1(=O)OCCOS(=O)(=O)C1Br" , please?
Result: NO

Request: Could you do the same for COC(=O)C(Cc1c[nH]c2ccccc12)NC(=O)C(Cc1c[nH]c2ccccc12)NC(=O)C(Cc1c[nH]c2ccccc12)NC(=O)C(Cc1c[nH]c2ccccc12)NC(=O)C(Cc1c[nH]c2ccccc12)NC(=O)C(Cc1c[nH]c2ccccc12)NC(=O)C(Cc1c[nH]c2ccccc12)NC(=O)OC(C)(C)C (configuration not stated) (Boc-WWWWWWW-OMe; configuration not given here) , please?
Result: NO

Request: Could you do the same for CCC/C=C/C=C/C(=O)OC1C(C)C2(O)C3C=C(C)C(=O)C3CC(COC(C)=O)=CC2C2C(C)(C)C12OC(=O)C(C)C (configuration not stated) , please?
Result: NO

Request: Could you do the same for CCOC(=O)c1nc2c3c(ncn2n1)Oc1c(c(-c2ccccc2)nn1-c1ccccc1)C3c1ccc(OC)c(OC)c1 (configuration not stated) , please?
Result: NO

Request: Could you do the same for CC(=O)C1=C(O)C(N)C2Cc3c(c(O)c4c(O)c(C)ccc4c3C)C(=O)C2(O)C1=O (configuration not stated) , please?
Result: NO

---
Request: Can you look up the reported call for "COc1ccc(/C=C(/C#N)C(N)=O)c(OC)c1" for me?
Result: NO

Request: Could you do the same for "c1csc(-c2ccsc2-c2cccs2)c1" , please?
Result: NO

Request: Could you do the same for COc1cccc(C2c3cc4c(cc3OC(NNC(N)=O)C2C)OCO4)c1OC (configuration not stated) , please?
Result: NO

Request: Could you do the same for "O=C(/C=N/O)Nc1ccc(Cl)c(I)c1" , please?
Result: NO

Request: Could you do the same for CC[C@H](C)[C@H]1NC(=O)[C@@H](NC(=O)[C@@H](CC(C)C)N(C)C(=O)C2CCCN2C(=O)[C@H](C)O)[C@@H](C)OC(=O)[C@H](Cc2ccccc2)N(C)C(=O)[C@@H]2CCCN2C(=O)[C@H](CC(C)C)NC(=O)[C@@H](C)C(=O)[C@H](C(C)C)OC(=O)C[C@@H]1O (some centres not stated) , please?
Result: YES

Request: Could you do the same for S=C=NC1CCC(c2cc3ccccc3s2)(N2CCCCC2)CC1 (configuration not stated) , please?
Result: NO

Request: Could you do the same for "O=C(Nc1cc(Cl)c(I)c(Cl)c1)C(F)(F)F" , please?
Result: NO

src = ChEMBL document CHEMBL1201862
